Test system: KB
Experiment: Cytotoxicity against human KB cells after 72 hrs by SRB method
Format: functional
Conditions: read-out: ED50 (the source's name)
Quick reference for EC50 among some molecules
Experimental Readout: EC50 (µg/mL)

Query Smiles	Obs Value
CCCCC[C@H]1CCCCCCCCCC(=O)O[C@@H]2[C@@H](O[C@@H]3O[C@H](C)[C@@H](O)[C@H](O)[C@H]3O)[C@H](C)O[C@@H](O[C@H]3[C@H](O[C@H]4[C@H](O1)O[C@H](C)[C@@H](O)[C@@H]4O)O[C@H](COC(=O)[C@@H](C)CC)[C@@H](O)[C@@H]3O)[C@@H]2OC(=O)[C@H](C)[C@@H](C)O	7
Cc1c2ccncc2c(C)c2c1[nH]c1ccccc12	0.33
CCCCC[C@H]1CCCCCCCCCC(=O)O[C@H]2[C@H](O)[C@@H](COC(=O)[C@H](C)[C@@H](C)O)O[C@@H](O[C@H]3[C@H](O1)O[C@H](C)[C@@H](O)[C@@H]3O)[C@@H]2O[C@@H]1O[C@@H](C)[C@H](O[C@@H]2O[C@H](C)[C@@H](O)[C@H](O)[C@H]2O)[C@@H](O)[C@H]1OC(=O)[C@@H](C)CC	7
CCCCC[C@H]1CCCCCCCCCC(=O)O[C@@H]2[C@@H](O[C@@H]3O[C@H](C)[C@@H](O)[C@H](O)[C@H]3O)[C@H](C)O[C@@H](O[C@H]3[C@H](O[C@H]4[C@H](O1)O[C@H](C)[C@@H](O)[C@@H]4O)O[C@H](CO)[C@@H](O)[C@@H]3O)[C@@H]2OC(=O)[C@@H](C)CC	7
